experiment: Quantitative High-Throughput drug screen in 47 multiple myeloma cell lines against the NCATS MIPE library collection: KMS26_JCRB cell viability assay (AID 1918975); details: KMS26 myeloma cells viability, CellTiter-Glo ATP, 48 h; series mostly up to 45.8 µM; further: nearly all actives have a fitted effect of over 45% in size
Records with an inconclusive call do not appear. The source made the active and inactive calls. The call rests on the fitted dose curve; in most records, active means well fitted cell-killing curve with a large enough effect; inconclusive means small, poorly fitted or top-dose-only effect, or effect the other way; inactive means no such curve, though single readings can be large or run the other way.
Your answer must be one of the following: t (active), f (inactive)

I'd appreciate the recorded outcome for CCCCCCCCCCCCCCCC(=O)OC[C@@H](NC(=O)C(Cl)Cl)[C@H](O)c1ccc([N+](=O)[O-])cc1 from this test.
f

I'd appreciate the recorded outcome for Cc1cc(Nc2ncc3c(n2)N(C)C(=O)N(c2cc(NC(=O)c4cccc(C(F)(F)F)c4)ccc2C)C3)n(C)n1 from this test.
t

I'd appreciate the recorded outcome for C=C(C)[C@@H]1CC[C@]2(C(=O)O)CC[C@]3(C)[C@H](CC[C@@H]4[C@@]5(C)CC[C@H](O)C(C)(C)[C@@H]5CC[C@]43C)[C@@H]12 from this test.
f

I'd appreciate the recorded outcome for CC(C=CC=C(C)C=CC1=C(C)CCCC1(C)C)=CC=CC=C(C)C=CC=C(C)C=CC1=C(C)CCCC1(C)C from this test.
t

----------
assay: qHTS of pediatric cancer cell lines to identify multiple opportunities for drug repurposing: Confirmatory screen for DAOY cells (AID 1347114); details: DAOY medulloblastoma cells viability, cytotoxicity qHTS; series mostly up to 45.9 µM; further: potency means the concentration at half of the fitted maximal effect; nearly all actives have a fitted effect of over 65% in size
Inconclusive results are not listed. The source made the active and inactive calls. Calls follow the shape of the dose curve; as a rule, active = well fitted cell-killing curve with a large enough effect; inconclusive = small, poorly fitted or top-dose-only effect; inactive = no such curve, though single readings can be large or run the other way.
Property measured: Potency

>  <Compound>
Cc1cnc(Nc2ccc(N3CCN(C)CC3)cc2)nc1Nc1cccc(S(=O)(=O)NC(C)(C)C)c1

>  <Potency>
18.5 µM (active)

$$$$
>  <Compound>
COC[C@H](NC(=O)c1cnc(C)s1)C(=O)N[C@@H](COC)C(=O)N[C@@H](Cc1ccccc1)C(=O)[C@@]1(C)CO1

>  <Potency>
0.104 µM (active)

$$$$
>  <Compound>
COc1cc(OC)c(C=CS(=O)(=O)Cc2ccc(OC)c(NCC(=O)O)c2)c(OC)c1

>  <Potency>
0.165 µM (active)

$$$$
>  <Compound>
C=CC(=O)Nc1cccc(Nc2nc(NC3CCC(N(C)C)CC3)nc3c2ncn3C(C)C)c1 (stereo unspecified)

>  <Potency>
3.29 µM (active)

$$$$
>  <Compound>
COc1cc([C@@H]2c3cc4c(cc3[C@@H](O[C@@H]3O[C@@H]5CO[C@@H](c6cccs6)O[C@@H]5[C@H](O)[C@@H]3O)[C@H]3COC(=O)[C@H]23)OCO4)cc(OC)c1O

>  <Potency>
5.22 µM (active)

$$$$
>  <Compound>
O=C1NC(=O)[C@@H](c2cn3c4c(cccc24)CCC3)[C@H]1c1c[nH]c2ccccc12

>  <Potency>
2.08 µM (active)

$$$$

Potency for COc1cccc2c1C(=O)c1c(O)c3c(c(O)c1C2=O)C[C@@](O)(C(=O)CO)C[C@H]3O[C@H]1C[C@H](N)[C@H](O)[C@H](C)O1 ?
3.69 µM (active)

Potency for COc1cccc2c1C(=O)c1c(O)c3c(c(O)c1C2=O)C[C@@](O)(C(C)=O)C[C@H]3O[C@H]1C[C@H](N)[C@H](O)[C@H](C)O1 ?
3.69 µM (active)

Potency for O=C(NC1CC1)c1cccc(-c2ccc3c(NC(=O)C4CC4)n[nH]c3c2)c1 ?
9.27 µM (active)

----------
Assay: qHTS drug screen for cell cycle checkpoint inhibitors in PARPi-resistant BRCA-mutant ovarian cancer cell lines. (AID 1963452)
Details: PEO1/OlaR viability, CellTiter-Glo luminescence, 96 h; measured here: PEO1 parental Z-AUC; stronger effect = lower value
From the text: Women's Malignancies Branch, Center for Cancer Research (CCR), National Cancer Institute (NCI), National Institutes of Health (NIH), Bethesda, MD Poly (ADP-ribose) polymerase inhibitors (PARPis) have changed the treatment paradigm in breast cancer gene (BRCA) - mutant high-grade serous ovarian carcinoma (HGSC). […] 6; Detection; Luminescence, PHERAstar (BMG Labtech) plate reader. […] 6. Luminescence readings were taken using PHERAstar (BMG Labtech). […]
Property measured: Z-AUC
Just the number.

Z-AUC for O=C1CSC(=O)N1C(CCc1ccncc1)COc1ccc(-c2cccc([N+](=O)[O-])c2)cc1 (stereo unspecified) ?
-0.739

Z-AUC for CCCc1nc(C(C)(C)O)c(C(=O)O)n1Cc1ccc(-c2ccccc2-c2nn[nH]n2)cc1 ?
0.788

Z-AUC for Cn1cnc2c(F)c(Nc3ccc(Br)cc3F)c(C(=O)NOCCO)cc21 ?
-0.742

Z-AUC for C=CC(=O)N1CCc2ccc(-n3c(=O)ccc4cnc5ccc(-c6cnn(C)c6)cc5c43)cc21 ?
-0.285

Z-AUC for CC(Oc1ccc(O)cc1)(P(=O)(O)O)P(=O)(O)O ?
0.34

Z-AUC for CN(C)c1ccc(C(=O)NCCCCCCC(=O)NO)cc1 ?
-0.12

Z-AUC for CCCCC(=O)O[C@]1(C(=O)CO)[C@@H](C)C[C@H]2[C@@H]3CCC4=CC(=O)C=C[C@]4(C)[C@@]3(F)[C@@H](O)C[C@@]21C ?
0.863

Z-AUC for OCCNC1CCCc2c1[nH]c1ccc(-c3ccccc3)cc21 (stereo unspecified) ?
-0.384

Z-AUC for NC(=O)c1cccc(-c2cccc(OC(=O)NC3CCCCC3)c2)c1 ?
0.554

Z-AUC for Cn1cc(CNCC2CCN(c3ncc(C(=O)NO)cn3)CC2)c2ccccc21 ?
-1.95

Z-AUC for CCCCCCCCc1ccc(CCC(N)(CO)CO)cc1 ?
-0.111

Z-AUC for CC(Cc1ccc(O)c(O)c1)(NN)C(=O)O (stereo unspecified) ?
0.784

Z-AUC for O=S(=O)(O)CCSSCCS(=O)(=O)O ?
0.123

Z-AUC for N#Cc1cc(NC(=O)Nc2nnc(-c3ccncc3)s2)ccc1-c1cn[nH]c1 ?
0.0346

Z-AUC for c1cc(CN2CCCNCCNCCCNCC2)ccc1CN1CCCNCCNCCCNCC1 ?
0.744

Z-AUC for CC(C)Oc1ccc(C(=O)N[C@H](CNC(=O)CN(C)C)Cc2ccc(-c3cn4cccc([C@H](C)O)c4n3)cc2)cc1Cl ?
-0.733

Z-AUC for O=C(O)CCCCCC(=O)NN=C1CCCC1 ?
1.02

Z-AUC for COc1ccc([C@@H]2CNC(=O)C2)cc1OC1CCCC1 ?
-0.168

Z-AUC for O=C(c1ccc(F)cc1)N1CCC[C@H](c2nc(-c3ccc(F)cc3)no2)C1 ?
0.372

Z-AUC for NC(=NCCCCCCN=C(N)N=C(N)Nc1ccc(Cl)cc1)N=C(N)Nc1ccc(Cl)cc1 ?
0.0732

Z-AUC for CCS(=O)(=O)Nc1ccc2[nH]c(O)c(C(=Nc3ccc(CN4CCCCC4)cc3)c3ccccc3)c2c1 ?
-1.2

----------
test: Quantitative High-Throughput drug screen in 47 multiple myeloma cell lines against the NCATS MIPE library collection: MM1R_ATCC cell viability assay (AID 1918981); conditions: MM1R multiple myeloma cells, CellTiter-Glo viability, 48 h; series mostly up to 45.8 µM; further: nearly all actives have a fitted effect of over 35% in size
Records with an inconclusive call do not appear. Activity calls are given as the source filed them. Calls follow the shape of the dose curve; as a rule, active = well fitted cell-killing curve with a large enough effect; inconclusive = small, poorly fitted or top-dose-only effect, or effect the other way; inactive = no such curve, though single readings can be large or run the other way.
Your answer must be one of the following: yes (1) for active, no (0) for inactive

I'd appreciate the recorded outcome for C[C@@H]1C(=O)O[C@H]2CC34[C@H]5C[C@@H](C(C)(C)C)C36[C@H](OC(=O)[C@@H]6O)O[C@@]4(C(=O)O5)[C@]21O (stereo partly specified) from this test.
no (0)

I'd appreciate the recorded outcome for C=CC(=O)Nc1ccc2ncnc(Nc3ccc(OCc4cccc(F)c4)c(Cl)c3)c2c1 from this test.
yes (1)

I'd appreciate the recorded outcome for COC(=O)[C@@H]1[C@H]2C[C@@H]3c4[nH]c5ccccc5c4CCN3C[C@@H]2CC[C@@H]1O from this test.
no (0)

I'd appreciate the recorded outcome for CC(=O)N1CCN(c2ccc(OCc3nn(C)c(C)c3-c3cccc4c(CCCOc5cccc6ccccc56)c(C(=O)O)n(Cc5cccnc5)c34)cc2)CC1 from this test.
yes (1)

I'd appreciate the recorded outcome for COc1cc(C=CC(=O)CC(=O)C=Cc2ccc(O)c(OC)c2)ccc1O from this test.
yes (1)

I'd appreciate the recorded outcome for CCOC(=O)N1CCN([N+]([O-])=NOc2ccc([N+](=O)[O-])cc2[N+](=O)[O-])CC1 from this test.
yes (1)

I'd appreciate the recorded outcome for C[C@@H](Cc1cc2c(c(C(N)=O)c1)N(CCCO)CC2)NCCOc1ccccc1OCC(F)(F)F from this test.
no (0)

I'd appreciate the recorded outcome for O=C(c1ccc(F)cc1)N1CCC[C@H](c2nc(-c3ccc(F)cc3)no2)C1 from this test.
no (0)

I'd appreciate the recorded outcome for Cc1ncc(-c2ccnc(Nc3ccc(S(C)(=O)=O)cc3)n2)n1C(C)C from this test.
yes (1)

I'd appreciate the recorded outcome for NC[C@H]1O[C@H](O[C@H]2[C@@H](O)[C@@H](O[C@H]3O[C@H](CO)[C@@H](O)[C@H](N)[C@@H]3O)[C@H](N)C[C@@H]2N)[C@H](N)C[C@H]1O from this test.
no (0)

I'd appreciate the recorded outcome for C[C@H]1C[C@H]2[C@@H]3CCC4=CC(=O)C=C[C@]4(C)[C@@H]3C(=O)C[C@]2(C)[C@@]1(O)C(=O)CO from this test.
no (0)

I'd appreciate the recorded outcome for O=C(C=Cc1ccc(CN(CCO)CCc2c[nH]c3ccccc23)cc1)NO from this test.
yes (1)

I'd appreciate the recorded outcome for CC[C@@]1([C@@H]2O[C@@H]([C@H]3O[C@@](O)(CO)[C@H](C)C[C@H]3C)C[C@H]2C)CC[C@H]([C@]2(C)CC[C@]3(C[C@H](O)[C@@H](C)[C@@H]([C@@H](C)[C@@H](OC)[C@H](C)C(=O)O)O3)O2)O1 from this test.
yes (1)

I'd appreciate the recorded outcome for COc1cc(O)c2c(c1)C1OC1C[C@H](O)[C@H](O)C(=O)C=CC[C@H](C)OC2=O (stereo partly specified) from this test.
yes (1)

I'd appreciate the recorded outcome for O=C1NC(=O)[C@@H](c2cn3c4c(cccc24)CCC3)[C@H]1c1c[nH]c2ccccc12 from this test.
yes (1)

I'd appreciate the recorded outcome for C[C@@H](Oc1ccc2[nH]nc(C=Cc3cnn(CCO)c3)c2c1)c1c(Cl)cncc1Cl from this test.
yes (1)
